src = ChEMBL document CHEMBL1137065

Target: Gag-Pro polyprotein (Human T-cell leukemia virus 1 (strain Japan ATK-1 subtype A) (HTLV-1))
Assay: Percent inhibition of recombinant human T-cell leukemia virus type I (HTLV-1) protease was determined at 50 uM concentration
Conditions: Human T-cell lymphotrophic virus type 1 (strain ATK)
Starred links: 1 amine or outer side, 2 acyl side, 3 side chain; linkers in the order of their positions; H or OH if unused. Non-standard residues stand in square brackets, D forms with d. Residues, ends and D or L forms follow the SMILES beside them. X1 = O=C(C(O)[C@H](Cc1ccccc1)N[*:1])[*:2]; X2 = CC(C)C[C@H](N[*:1])C(O)C(=O)[*:2]; Thz(5,5-Me2) = CC1(C)SCN[C@@H]1C(=O)O
Param threshold (50%) applies to inhibition; output yes (1) when value >= threshold, no (0) when value < threshold.

Take a look at these entries with their results.
MOLECULE: CC(C)CC(=O)N[C@H](C(=O)N[C@H](C(=O)N[C@@H](CC(C)C)[C@@H](O)CC(=O)N[C@@H](C)C(=O)N[C@@H](CC(C)C)[C@@H](O)CC(=O)O)C(C)C)C(C)C
CLASSIFICATION: no (0)
--
MOLECULE: CSCC[C@H](NC(=O)[C@@H](NC(=O)[C@H]1N(C(=O)C(O)[C@H](Cc2ccccc2)NC(=O)[C@@H](NC(=O)[C@H](CCC(N)=O)NC(=O)[C@@H]2CCCN2)C(C)C)CSC1(C)C)C(C)C)C(=O)N[C@@H](Cc1c[nH]cn1)C(=O)O (stereo not given in full) (H-PQV[X1][Thz(5,5-Me2)]VMH-OH)
CLASSIFICATION: yes (1)
--
MOLECULE: CSCC[C@H](NC(=O)[C@@H](NC(=O)[C@H]1N(C(=O)C(O)[C@H](CC(C)C)NC(=O)[C@@H](NC(=O)[C@H](CCC(N)=O)NC(=O)[C@@H]2CCCN2)C(C)C)CSC1(C)C)C(C)C)C(=O)N[C@@H](Cc1c[nH]cn1)C(=O)O (stereo not given in full) (H-PQV[X2][Thz(5,5-Me2)]VMH-OH)
CLASSIFICATION: yes (1)
--
MOLECULE: CSCC[C@H](NC(=O)[C@@H](NC(=O)[C@@H]1CCCN1C(=O)C(O)[C@H](Cc1ccccc1)NC(=O)[C@@H](NC(=O)[C@H](CCC(N)=O)NC(=O)[C@@H]1CCCN1)C(C)C)C(C)C)C(=O)N[C@@H](Cc1c[nH]cn1)C(=O)O (stereo not given in full) (H-PQV[X1]PVMH-OH)
CLASSIFICATION: yes (1)

Q: Confirm if inhibition reported for the molecule CSCC[C@H](NC(=O)[C@@H](NC(=O)[C@@H]1CCCN1C(=O)C(O)[C@H](CC(C)C)NC(=O)[C@@H](NC(=O)[C@H](CCC(N)=O)NC(=O)[C@@H]1CCCN1)C(C)C)C(C)C)C(=O)N[C@@H](Cc1c[nH]cn1)C(=O)O (stereo not given in full) (H-PQV[X2]PVMH-OH) is 50% or above.
A: no (0)

----------
Biological target: Gag-Pro polyprotein (Human T-cell leukemia virus 1 (strain Japan ATK-1 subtype A) (HTLV-1)) (UniProt P10274)
Sequence (whole entry): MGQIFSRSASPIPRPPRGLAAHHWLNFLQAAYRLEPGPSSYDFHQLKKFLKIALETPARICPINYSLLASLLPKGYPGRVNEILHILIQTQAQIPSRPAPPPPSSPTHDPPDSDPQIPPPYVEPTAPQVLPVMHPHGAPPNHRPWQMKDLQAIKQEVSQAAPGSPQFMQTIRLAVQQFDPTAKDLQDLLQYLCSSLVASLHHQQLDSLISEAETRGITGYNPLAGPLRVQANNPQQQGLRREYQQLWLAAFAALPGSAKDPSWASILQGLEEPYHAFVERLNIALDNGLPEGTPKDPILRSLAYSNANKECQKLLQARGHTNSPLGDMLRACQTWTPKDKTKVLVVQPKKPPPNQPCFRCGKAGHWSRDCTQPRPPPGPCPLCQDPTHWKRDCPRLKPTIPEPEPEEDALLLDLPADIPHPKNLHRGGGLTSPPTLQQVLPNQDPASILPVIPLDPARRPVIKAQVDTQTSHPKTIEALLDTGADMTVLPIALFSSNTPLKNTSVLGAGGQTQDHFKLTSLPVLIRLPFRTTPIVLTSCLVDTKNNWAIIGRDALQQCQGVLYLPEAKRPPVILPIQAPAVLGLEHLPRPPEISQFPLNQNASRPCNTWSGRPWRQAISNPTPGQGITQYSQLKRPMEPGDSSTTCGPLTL
Assay: Percent inhibition of recombinant human T-cell leukemia virus type I (HTLV-1) protease was determined at 100 uM concentration
Settings: human T-cell leukemia virus type 1
Starred links: 1 amine or outer side, 2 acyl side, 3 side chain; linkers in the order of their positions; H or OH if unused. Non-standard residues stand in square brackets, D forms with d. Residues, ends and D or L forms follow the SMILES beside them. X1 = O=C(C(O)[C@H](Cc1ccccc1)N[*:1])[*:2]; X2 = CC(C)C[C@H](N[*:1])C(O)C(=O)[*:2]; Thz(5,5-Me2) = CC1(C)SCN[C@@H]1C(=O)O
Param threshold (90%) applies to inhibition; output 1 when value >= threshold, -1 when value < threshold.

Take a look at these entries with their results.
COMPOUND: Cc1c(O)cccc1C(=O)NC(Cc1ccccc1)C(O)C(=O)N1CSC(C)(C)C1C(=O)NC(C)(C)C (stereo not given)
CLASSIFICATION: -1

COMPOUND: CSCC[C@H](NC(=O)[C@@H](NC(=O)[C@H]1N(C(=O)C(O)[C@H](Cc2ccccc2)NC(=O)[C@@H](NC(=O)[C@H](CCC(N)=O)NC(=O)[C@@H]2CCCN2)C(C)C)CSC1(C)C)C(C)C)C(=O)N[C@@H](Cc1c[nH]cn1)C(=O)O (stereo not given in full) (H-PQV[X1][Thz(5,5-Me2)]VMH-OH)
CLASSIFICATION: 1

COMPOUND: CC(C)c1nc(CN(C)C(=O)N[C@H](C(=O)N[C@@H](Cc2ccccc2)C[C@H](O)[C@H](Cc2ccccc2)NC(=O)OCc2cncs2)C(C)C)cs1
CLASSIFICATION: -1

Q: Confirm if inhibition reported for the compound CSCC[C@H](NC(=O)[C@@H](NC(=O)[C@@H]1CCCN1C(=O)C(O)[C@H](CC(C)C)NC(=O)[C@@H](NC(=O)[C@H](CCC(N)=O)NC(=O)[C@@H]1CCCN1)C(C)C)C(C)C)C(=O)N[C@@H](Cc1c[nH]cn1)C(=O)O (stereo not given in full) (H-PQV[X2]PVMH-OH) is 90% or above.
A: 1

Q: Confirm if inhibition reported for the compound Cc1cccc(C)c1OCC(=O)NC(Cc1ccccc1)C(O)C(=O)N1CSC(C)(C)C1C(=O)NC(C)(C)C (stereo not given) is 90% or above.
A: -1

----------
For each entry below, report its inhibition value.
Target: Gag-Pro polyprotein (Human T-cell leukemia virus 1 (strain Japan ATK-1 subtype A) (HTLV-1))
Assay: Percent inhibition of synthesized human T-cell leukemia virus type I (HTLV-1) protease was determined at 100 uM concentration
Conditions: human T-cell leukemia virus type 1
Give bare numbers, in %.

COMPOUND: Cc1ccccc1CNC(=O)C1N(C(=O)C(O)C(Cc2ccccc2)NC(=O)COc2c(C)cccc2C)CSC1(C)C (stereo not given)
UNITS TEXT: %
inhibition: 11
--
COMPOUND: Cc1c(O)cccc1C(=O)NC(Cc1ccccc1)C(O)C(=O)N1CSC(C)(C)C1C(=O)NC(C)(C)C (stereo not given)
UNITS TEXT: %
inhibition: 57

Hey, quick one: what's inhibition for each of these?
1. CC(C)c1nc(CN(C)C(=O)N[C@H](C(=O)N[C@@H](Cc2ccccc2)C[C@H](O)[C@H](Cc2ccccc2)NC(=O)OCc2cncs2)C(C)C)cs1
2. Cc1cccc(C)c1OCC(=O)NC(Cc1ccccc1)C(O)C(=O)N1CSC(C)(C)C1C(=O)NC(C)(C)C (stereo not given)

A:
20
32

GET /value?item= Cc1ccccc1CNC(=O)C1N(C(=O)C(O)C(Cc2ccccc2)NC(=O)c2cccc(O)c2C)CSC1(C)C (stereo not given) &field=inhibition returns 79

----------
Molecular target: Gag-Pro polyprotein (Human T-cell leukemia virus 1 (strain Japan ATK-1 subtype A) (HTLV-1)) (UniProt P10274)
Assay: Percent inhibition of recombinant human T-cell leukemia virus type I (HTLV-1) protease was determined at 100 uM concentration
Details: human T-cell leukemia virus type 1
Starred links: 1 amine or outer side, 2 acyl side, 3 side chain; linkers in the order of their positions; H or OH if unused. Non-standard residues stand in square brackets, D forms with d. Residues, ends and D or L forms follow the SMILES beside them. X1 = O=C(C(O)[C@H](Cc1ccccc1)N[*:1])[*:2]; X2 = CC(C)C[C@H](N[*:1])C(O)C(=O)[*:2]; Thz(5,5-Me2) = CC1(C)SCN[C@@H]1C(=O)O
PARAMETER MEASURED: inhibition
Answer with the value and then the unit.

COMPOUND: CSCC[C@H](NC(=O)[C@@H](NC(=O)[C@@H]1CCCN1C(=O)C(O)[C@H](Cc1ccccc1)NC(=O)[C@@H](NC(=O)[C@H](CCC(N)=O)NC(=O)[C@@H]1CCCN1)C(C)C)C(C)C)C(=O)N[C@@H](Cc1c[nH]cn1)C(=O)O (some centres undefined) (H-PQV[X1]PVMH-OH)
RESULT: 94%

COMPOUND: Cc1ccccc1CNC(=O)C1N(C(=O)C(O)C(Cc2ccccc2)NC(=O)c2cccc(O)c2C)CSC1(C)C (centres undefined)
RESULT: 31%

COMPOUND: Cc1ccccc1CNC(=O)C1N(C(=O)C(O)C(Cc2ccccc2)NC(=O)COc2c(C)cccc2C)CSC1(C)C (centres undefined)
RESULT: 19%

Please look at the following compound next.
GET /value?item= CSCC[C@H](NC(=O)[C@@H](NC(=O)[C@H]1N(C(=O)C(O)[C@H](CC(C)C)NC(=O)[C@@H](NC(=O)[C@H](CCC(N)=O)NC(=O)[C@@H]2CCCN2)C(C)C)CSC1(C)C)C(C)C)C(=O)N[C@@H](Cc1c[nH]cn1)C(=O)O (some centres undefined) (H-PQV[X2][Thz(5,5-Me2)]VMH-OH) &field=inhibition returns 100%
